Values from paper PMC10885153

Assay: physchem
Conditions: pH 7.4, aqueous with cosolvent or surfactant or cyclodextrin, kinetic from dmso stock
Positions of bridges follow the written chain, without caps; N, C: chain ends. Non-standard residues stand in square brackets, D forms with d. Residues, ends and D or L forms follow the SMILES beside them. NMeNva = CCC[C@H](NC)C(=O)O; NMeC = CN[C@@H](CS)C(=O)O; NMeA = CN[C@@H](C)C(=O)O; Nva = CCC[C@H](N)C(=O)O; Abu = CC[C@H](N)C(=O)O; NPrGly = CCCNCC(=O)O
property_measured: solubility kinetic at 24 h (µM)
Only the number, expressed in µM, is required.

Task: # return recorded solubility kinetic at 24 h for input CCCN1CC(=O)N[C@@H](CC(C)C)C(=O)N2CCC[C@@H]2C(=O)N(C)[C@@H](C)C(=O)N[C@@H](CC)C(=O)N(C)[C@@H](C)C(=O)N[C@@H](CC(C)C)C(=O)N(C)[C@H](C(=O)OCC)CSCC(=O)N[C@@H](CC(C)C)C1=O [LB04] ({CH2CO}-L[NPrGly]L[dP][NMeA][Abu][NMeA]L[NMeC]-OEt; thioether N-9)
Output: 105

Task: # return recorded solubility kinetic at 24 h for input CCC[C@@H]1NC(=O)[C@H](C)N(C)C(=O)[C@H](CC(C)C)NC(=O)CSC[C@@H](C(=O)OCC)N(C)C(=O)[C@H](CC(C)C)NC(=O)[C@H](C)N(C)C(=O)[C@H](CC(C)C)NC(=O)CN(CCC)C(=O)[C@H]2CCCN2C1=O [LA07] ({CH2CO}-L[NMeA][Nva][dP][NPrGly]L[NMeA]L[NMeC]-OEt; thioether N-9)
Output: 122

Task: # return recorded solubility kinetic at 24 h for input CCC[C@@H]1NC(=O)[C@H](C)N(C)C(=O)[C@H](CC(C)C)NC(=O)CSC[C@@H](C(=O)OCC)N(C)C(=O)[C@H](CC(C)C)NC(=O)[C@H](C)N(C)C(=O)[C@H](CC(C)C)NC(=O)[C@H](CCC)N(C)C(=O)[C@H]2CCCN2C1=O [LC07] ({CH2CO}-L[NMeA][Nva][dP][NMeNva]L[NMeA]L[NMeC]-OEt; thioether N-9)
Output: 109
